- Test system: canine erythrocytes
- assay comment: in vitro
- Assay type: cell-based, dog
- run conditions: red cells of canine
Square brackets hold non-standard residues; d marks the D form. Peptide text beside a SMILES is read from it. N(1-naphthylmethyl)Gly = O=C(O)CNCc1cccc2ccccc12; Nphe = O=C(O)CNCc1ccccc1; NBuGly = CCCCNCC(=O)O
assay endpoint: IC50 (µM)
The response must be a number in µM with no trailing unit.

Please review the entries below; each comes with its answer.
CCCC[C@H](NC(=O)[C@H](CCCCN)NC(=O)[C@H](CCCCN)NC(=O)[C@@H](N)CCCCN)C(=O)N[C@@H](Cc1ccc2ccccc2c1)C(=O)N[C@@H](Cc1ccccc1)C(=O)N[C@@H](Cc1ccc2ccccc2c1)C(N)=O [Compound 18] (HELM PEPTIDE1{K.K.K.[Nle].[O=C([C@H](Cc1ccc2ccccc2c1)N[*:1])[*:2]].F.[O=C([C@H](Cc1ccc2ccccc2c1)N[*:1])[*:2]].[am]}$$$$V2.0) | 42.7
CCCCN(CC(=O)N[C@@H](CCCCN)C(=O)N[C@@H](CCCCN)C(=O)N[C@@H](CCCCN)C(N)=O)C(=O)CN(Cc1cccc2ccccc12)C(=O)CN(Cc1ccccc1)C(=O)CNCc1cccc2ccccc12 [Compound 2] (H-[N(1-naphthylmethyl)Gly][Nphe][N(1-naphthylmethyl)Gly][NBuGly]KKK-NH2) | 32
CC(C)C[C@H](NC(=O)[C@H](CCCCN)NC(=O)[C@H](CCCCN)NC(=O)[C@@H](N)CCCCN)C(=O)N[C@@H](Cc1cccc2ccccc12)C(=O)N[C@@H](Cc1ccc(O)cc1)C(=O)N[C@@H](Cc1cccc2ccccc12)C(N)=O [Compound 19, Lys-Lys-Lys-Leu(1-Nal)Ala-Tyr-(1-Nal)Ala] (HELM PEPTIDE1{K.K.K.L.[O=C([C@H](Cc1cccc2ccccc12)N[*:1])[*:2]].Y.[O=C([C@H](Cc1cccc2ccccc12)N[*:1])[*:2]].[am]}$$$$V2.0) | 20.8
CC(C)C[C@H](NC(=O)[C@H](CCCCN)NC(=O)[C@H](CCCCN)NC(=O)[C@@H](N)CCCCN)C(=O)N[C@@H](Cc1cccc2ccccc12)C(=O)N[C@@H](Cc1ccccc1)C(=O)N[C@@H](Cc1cccc2ccccc12)C(N)=O [Compound 7, Lys-Lys-Lys-Leu-(1-Nal)Ala-Phe(1-Nal)Ala] (HELM PEPTIDE1{K.K.K.L.[O=C([C@H](Cc1cccc2ccccc12)N[*:1])[*:2]].F.[O=C([C@H](Cc1cccc2ccccc12)N[*:1])[*:2]].[am]}$$$$V2.0) | 47.2

IC50 on canine erythrocytes for CCCCN(CC(=O)N(CC(=O)N(CC(=O)N(CC(N)=O)Cc1cccc2ccccc12)Cc1ccccc1)Cc1cccc2ccccc12)C(=O)[C@H](CCCCN)NC(=O)[C@H](CCCCN)NC(=O)[C@@H](N)CCCCN [Compound 15] (H-KKK[NBuGly][N(1-naphthylmethyl)Gly][Nphe][N(1-naphthylmethyl)Gly]-NH2) is 65.7

Log: canine erythrocytes, compound CC(C)C[C@H](NC(=O)[C@H](CCCCN)NC(=O)[C@H](CCCCN)NC(=O)[C@@H](N)CCCCN)C(=O)N[C@@H](Cc1ccc2ccccc2c1)C(=O)N[C@@H](Cc1ccc(O)cc1)C(=O)N[C@@H](Cc1ccc2ccccc2c1)C(N)=O [Compound 17] (HELM PEPTIDE1{K.K.K.L.[O=C([C@H](Cc1ccc2ccccc2c1)N[*:1])[*:2]].Y.[O=C([C@H](Cc1ccc2ccccc2c1)N[*:1])[*:2]].[am]}$$$$V2.0) , IC50 = 87

Origin of values: paper PMC7414031
